# credit: paper PMC7419010

Target: Lsa-nAChR2 (α3β1β2) (Lepeophtheirus salmonis, UniProt A0A7S5PZ03+A0A7S5PZ05+A0A7S5Q7H3)
Test: cell-based
Type: cell-based
Conditions: EC50 (nM), Xenopus oocytes, 1:1 (α:β) ratio
Reported EC50 values follow for various compounds
Enter your answer as a number in nM; do not include the unit.

[[record]]
compound = "CN/C(=N/CC1CCOC1)N[N+](=O)[O-] (centres unmarked)"
experimental_readout = "EC50"
unit_name = "nM"
reading = 757


Here is the next item to consider.
GET EC50 where system = Lsa-nAChR2 (α3β1β2) (Lepeophtheirus salmonis, UniProt A0A7S5PZ03+A0A7S5PZ05+A0A7S5Q7H3) and item = CN1CCC[C@H]1c1cccnc1
9980

----------
Molecular target: Lsa-nAChR2 (α3β1β2) (Lepeophtheirus salmonis, UniProt A0A7S5PZ03+A0A7S5PZ05+A0A7S5Q7H3)
Experiment: cell-based
Assay type: cell-based
Conditions: calculated EC50, text values in μM; 1:1 (α:β) ratio
Experimental readout: EC50 (µM)
Your answer should be a plain number; it is taken to be in µM.

Under Lsa-nAChR2 (α3β1β2) (Lepeophtheirus salmonis, UniProt A0A7S5PZ03+A0A7S5PZ05+A0A7S5Q7H3): report EC50 of CN1CCC[C@H]1c1cccnc1 [Nicotine] .
9.98

----------
Molecular target: Lsa-nAChR2 (α3β1β2) (Lepeophtheirus salmonis, UniProt A0A7S5PZ03+A0A7S5PZ05+A0A7S5Q7H3)
Test: cell-based
Type: cell-based
Conditions: dose-response, 1:1 (α:β) ratio
Experimental readout: type of effect on the receptor (agonist / partial-agonist / super-agonist / no effect)

[[record]]
molecule = "CN/C(=N\\[N+](=O)[O-])NCc1cnc(Cl)s1 [Clothianidin]"
reading = "partial-agonists"

[[record]]
molecule = "CCN(Cc1ccc(Cl)nc1)/C(=C/[N+](=O)[O-])NC [Nitenpyram]"
reading = "partial-agonists"


----------
Biological target: Lsa-nAChR1 (α1α2β1β2) (Lepeophtheirus salmonis, UniProt A0A7S5PZ05+A0A7S5Q3W4+A0A7S5Q7H3+A0A7S5U9A3)
Sequence (A0A7S5PZ05 entry or part of it): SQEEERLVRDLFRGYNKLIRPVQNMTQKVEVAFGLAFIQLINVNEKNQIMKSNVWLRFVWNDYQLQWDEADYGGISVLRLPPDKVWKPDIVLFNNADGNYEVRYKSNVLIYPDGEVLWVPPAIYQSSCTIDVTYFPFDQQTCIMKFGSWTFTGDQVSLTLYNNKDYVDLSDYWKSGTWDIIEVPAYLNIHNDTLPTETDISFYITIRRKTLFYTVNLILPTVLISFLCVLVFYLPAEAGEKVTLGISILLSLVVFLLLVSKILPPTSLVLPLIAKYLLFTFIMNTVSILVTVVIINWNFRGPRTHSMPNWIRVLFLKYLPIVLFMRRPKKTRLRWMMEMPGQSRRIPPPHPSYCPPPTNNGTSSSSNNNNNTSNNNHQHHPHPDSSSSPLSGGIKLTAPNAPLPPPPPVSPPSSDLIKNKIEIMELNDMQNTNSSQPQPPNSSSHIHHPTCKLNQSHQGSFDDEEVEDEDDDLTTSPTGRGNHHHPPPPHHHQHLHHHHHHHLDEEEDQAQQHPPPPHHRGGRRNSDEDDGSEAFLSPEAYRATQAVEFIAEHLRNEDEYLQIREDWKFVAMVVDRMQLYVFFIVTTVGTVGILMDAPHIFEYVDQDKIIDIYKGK
Sequence (A0A7S5Q3W4 entry or part of it): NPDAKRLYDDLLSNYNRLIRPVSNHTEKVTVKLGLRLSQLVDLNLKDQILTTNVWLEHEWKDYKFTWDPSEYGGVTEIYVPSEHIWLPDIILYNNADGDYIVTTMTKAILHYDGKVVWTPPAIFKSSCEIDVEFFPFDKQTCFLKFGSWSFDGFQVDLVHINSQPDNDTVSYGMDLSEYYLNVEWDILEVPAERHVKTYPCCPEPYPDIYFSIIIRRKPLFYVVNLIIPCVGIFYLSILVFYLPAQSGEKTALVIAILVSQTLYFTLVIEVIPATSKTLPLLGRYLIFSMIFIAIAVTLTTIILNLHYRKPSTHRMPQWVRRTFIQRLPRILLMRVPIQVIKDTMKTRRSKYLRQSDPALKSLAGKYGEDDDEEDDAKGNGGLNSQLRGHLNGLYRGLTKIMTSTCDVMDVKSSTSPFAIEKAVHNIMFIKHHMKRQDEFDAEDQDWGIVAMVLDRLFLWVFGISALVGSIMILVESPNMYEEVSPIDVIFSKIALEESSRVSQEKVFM
Sequence (A0A7S5U9A3 entry or part of it): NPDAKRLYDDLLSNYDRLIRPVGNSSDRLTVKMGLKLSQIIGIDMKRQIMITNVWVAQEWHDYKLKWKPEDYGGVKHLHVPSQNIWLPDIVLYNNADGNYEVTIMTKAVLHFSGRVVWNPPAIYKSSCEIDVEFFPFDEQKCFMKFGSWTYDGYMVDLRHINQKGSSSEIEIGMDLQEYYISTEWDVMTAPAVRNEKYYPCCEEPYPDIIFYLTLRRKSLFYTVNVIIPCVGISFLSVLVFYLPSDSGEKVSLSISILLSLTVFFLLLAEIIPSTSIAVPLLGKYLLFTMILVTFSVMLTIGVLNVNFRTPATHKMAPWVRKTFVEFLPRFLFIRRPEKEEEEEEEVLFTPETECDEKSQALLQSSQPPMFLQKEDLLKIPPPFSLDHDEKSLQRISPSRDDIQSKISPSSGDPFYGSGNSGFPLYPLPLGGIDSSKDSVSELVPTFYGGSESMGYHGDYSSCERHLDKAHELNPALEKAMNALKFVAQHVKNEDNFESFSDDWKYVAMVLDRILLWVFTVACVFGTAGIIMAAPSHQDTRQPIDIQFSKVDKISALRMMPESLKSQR
Sequence (A0A7S5Q7H3 entry or part of it): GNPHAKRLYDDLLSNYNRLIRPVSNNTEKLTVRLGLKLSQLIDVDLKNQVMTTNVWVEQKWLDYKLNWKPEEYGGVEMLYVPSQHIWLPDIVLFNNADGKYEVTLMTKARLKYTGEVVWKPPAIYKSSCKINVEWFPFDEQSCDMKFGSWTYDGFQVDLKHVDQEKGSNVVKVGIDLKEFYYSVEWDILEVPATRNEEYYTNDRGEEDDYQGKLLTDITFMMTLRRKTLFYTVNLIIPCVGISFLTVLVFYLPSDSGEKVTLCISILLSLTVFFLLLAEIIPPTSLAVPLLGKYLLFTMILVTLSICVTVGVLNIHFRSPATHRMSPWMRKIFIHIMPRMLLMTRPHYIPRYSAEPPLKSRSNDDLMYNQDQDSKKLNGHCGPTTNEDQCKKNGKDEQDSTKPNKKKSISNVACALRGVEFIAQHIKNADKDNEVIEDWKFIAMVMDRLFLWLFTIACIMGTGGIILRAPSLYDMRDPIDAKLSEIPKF
Assay: cell-based
Type: cell-based
Experimental readout: pEC50
Answer as the number alone; pEC50 is minus log10 of concentration in mol/L.

[[record]]
item_smiles = "CCN(Cc1ccc(Cl)nc1)/C(=C/[N+](=O)[O-])NC"
experimental_readout = "pEC50"
reading = 7.35

[[record]]
item_smiles = "C/C(=N\\C#N)N(C)Cc1ccc(Cl)nc1"
experimental_readout = "pEC50"
reading = 4.99

[[record]]
item_smiles = "O=[N+]([O-])NC1=NCCN1Cc1ccc(Cl)nc1"
experimental_readout = "pEC50"
reading = 7.16


Please report the measured pEC50 for CN/C(=N\[N+](=O)[O-])NCc1cnc(Cl)s1
7.43

----------
System: L. salmonis (preadult 2)
Assay: In-vivo exposure of preadult salmon lice to 1 mg/L for 24 h
Set-up: species or system Lepeophtheirus salmonis
Conditions: preadult 2 parasites
Entries and their Efficacy at 1.0 mg/L (%) values follow.
State the value, then name its unit.

Reference set, count: 6
[[record]]
molecule = "CN/C(=N/CC1CCOC1)N[N+](=O)[O-] (stereo not shown) [Dinotefuran]"
reading = "100.0%"

[[record]]
molecule = "O=[N+]([O-])NC1=NCCN1Cc1ccc(Cl)nc1 [Imidacloprid]"
reading = "100.0%"

[[record]]
molecule = "C/C(=N\\C#N)N(C)Cc1ccc(Cl)nc1 [Acetamiprid]"
reading = "89.5%"

[[record]]
molecule = "CCN(Cc1ccc(Cl)nc1)/C(=C/[N+](=O)[O-])NC [Nitenpyram]"
reading = "17.7%"

[[record]]
molecule = "N#C/N=C1\\SCCN1Cc1ccc(Cl)nc1 [Thiacloprid]"
reading = "100.0%"

[[record]]
molecule = "CN1COCN(Cc2cnc(Cl)s2)/C1=N\\[N+](=O)[O-] [Thiamethoxam]"
reading = "0.0%"


Turning now to a further molecule:
Consider the molecule CN/C(=N\[N+](=O)[O-])NCc1cnc(Cl)s1 [Clothianidin] . State its measured Efficacy at 1.0 mg/L (%).
54.3%
